Molecular target: acid ceramidase (hACR) (Homo sapiens, UniProt Q13510)
Construct: expressed in transfected cells; cell lysate used
Sequence (Q13510 143-395 limits assumed): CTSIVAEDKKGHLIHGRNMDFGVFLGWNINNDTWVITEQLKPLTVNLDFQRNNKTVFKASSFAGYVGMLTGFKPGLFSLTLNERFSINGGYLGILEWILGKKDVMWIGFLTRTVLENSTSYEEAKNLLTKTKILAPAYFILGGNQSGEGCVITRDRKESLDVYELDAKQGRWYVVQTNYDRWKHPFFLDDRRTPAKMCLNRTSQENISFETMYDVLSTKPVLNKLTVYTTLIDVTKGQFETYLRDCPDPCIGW
Sequence (Q13510 22-142 limits assumed): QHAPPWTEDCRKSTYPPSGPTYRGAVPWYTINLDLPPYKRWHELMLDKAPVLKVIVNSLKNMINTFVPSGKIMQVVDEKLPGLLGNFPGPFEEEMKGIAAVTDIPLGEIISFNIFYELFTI
Assay: Acid ceramidase inhibition, biochemical fluorescent assay with cell lysates overexpressing acid ceramidase, substrate Rbm14-12
Settings: cell lysates overexpressing acid ceramidase; 1 hr preincubation at RT; pH 4.5; substrate Rbm14-12 6.3 μM; read-out: hACR IC50
Procedure: The ability of exemplary compounds to inhibit acid ceramidase was measured. Cell lysates overexpressing acid ceramidase were used as the enzyme source for compound potency determination in a biochemical fluorescent assay. […] Finally the plate was read with SpectraMax i3 plate reader (Molecular Devices) at ex360 nm and em446 nm. […]
Recorded IC50 by entry

See these solved cases before continuing.
* CC1(C)CC(=O)c2ccccc2N1C(=O)NCCc1ccccc1 | > 1000 nM
* CC1(C)CCc2ccccc2N1C(=O)NCCc1ccccc1 | 200 to 1000 nM
* CC(C)[C@H]1CN(C2CC2)CCN1C(=O)NCCCCc1ccccc1 | > 1000 nM

--- query ---
Record CCCCCNC(=O)N1C(c2ccc(OC)cc2F)COCC1(C)C (stereo not shown) ; system acid ceramidase (hACR) (Homo sapiens, UniProt Q13510); IC50 = < 200 nM

---

assay: Compound solubility in water; type: physicochemical
Measured attribute: solubility (µM)

• CN1CC(c2ccc3c(c2)N(C(=O)NCc2ccccc2)C(C)(C)CC3)C1 [Example 65] = 40.2

[P] CCCCNC(=O)N1c2ccccc2CCC1(C)C [Example 27]
[Q] CN1CCC(c2cccc3c2CN(C(=O)NCCc2ccccc2)C(C)(C)C3)CC1 [Example 20]
[R] CC1(C)CCc2ccc(N3CCOCC3)cc2N1C(=O)NCCc1ccccc1 [Example 10]
[S] CCCCCNC(=O)N1C(c2ccc(F)cc2)COCC1(C)C (stereo not drawn) [Example 137]
[T] CC1(C)CCc2c(C#N)cccc2N1C(=O)NCCc1ccccc1 [Example 47]
Q: Order these by solubility, descending, and give the full ranking. Put the labels in the order asked and list them.
A: S, Q, P, R, T

[P] CC1(C)CCc2ncccc2N1C(=O)NCCc1ccccc1 [Example 9]
[Q] COc1cccc2c1N(C(=O)NCCc1ccccc1)C(C)(C)CC2 [Example 68]
[R] COc1ccc(C2COCC(C)(C)N2C(=O)NCCF)cc1 (stereo not drawn) [Example 154]
Q: Order these by solubility, descending, and give the full ranking. Put the labels in the order asked and list them.
A: R, P, Q
(R: 92.9 µM, P: 25.2 µM, Q: 8.2 µM)

[a] CC1(C)CC(F)(F)CCN1C(=O)NCCCc1ccccc1 [Example 61]
[b] CC1(C)CCc2cccc(F)c2N1C(=O)NCCc1ccccc1 [Example 35]
Q: Higher solubility between a and b ? Write the label of whichever entry you select.
A: a

---

target: acid ceramidase (hACR) (Homo sapiens); construct: expressed in transfected cells; cell lysate used; test: Acid ceramidase inhibition, biochemical fluorescent assay with cell lysates overexpressing acid ceramidase, substrate Rbm14-12; details: cell lysates overexpressing acid ceramidase; 1 hr preincubation at RT; pH 4.5; substrate Rbm14-12 6.3 μM; read-out: hACR IC50
Measured attribute: IC50

- COc1cc(N2CCN(C(=O)NCCCCc3ccccc3)C(C)(C)C2=O)ccc1F: < 200 nM

In plain terms, CC1(C)CC(N2CCCCC2)/C(=C/c2ccccc2)CN1C(=O)NCCCCc1ccccc1 (stereo not drawn) has a documented IC50 of < 200 nM

In plain terms, COC1CC(C)(C)N(C(=O)NCCc2ccccc2)c2ccccc21 (stereo not drawn) has a documented IC50 of 200 to 1000 nM

In plain terms, CCCCCNC(=O)N1[C@@H]2CC[C@H]1CC(c1ccccc1)C2 (mixture of isomers) has a documented IC50 of > 1000 nM

In plain terms, CCCCCNC(=O)N1[C@H](C)COC[C@@H]1c1ccc(F)cc1 has a documented IC50 of 200 to 1000 nM

In plain terms, CC1(C)C(=O)N(c2ccccc2)CCN1C(=O)NCCCCc1ccccc1 has a documented IC50 of < 200 nM

In plain terms, CC1(C)CC(Oc2ccccc2)CCN1C(=O)NCCCCc1ccccc1 (stereo not drawn) has a documented IC50 of < 200 nM

In plain terms, COc1ccc(C2COCC(C)(C)N2C(=O)NCCC2CC2)cc1 (stereo not drawn) has a documented IC50 of < 200 nM

In plain terms, CC(=O)N1CC(c2ccc3c(c2)N(C(=O)NCCc2ccccc2)C(C)(C)CC3)C1 has a documented IC50 of 200 to 1000 nM

In plain terms, O=C(NCCc1ccccc1)N1CCCCC12CCC2 has a documented IC50 of > 1000 nM

In plain terms, O=C(NCCCc1ccccc1)N1CCCCC12CCCC2 has a documented IC50 of < 200 nM

In plain terms, CC1(C)CN(c2ccccc2)CCN1C(=O)NCCCCc1ccccc1 has a documented IC50 of < 200 nM
